biological target: 67 kDa laminin receptor (67-LR) (Homo sapiens); construct: endogenous in cells; host or cells: T47-D or SK HEP-1 cells (whole-cell suspension); assay: 125I-laminin displacement (competition binding) on T47-D or SK HEP-1 cells; conditions: relative to mEGF(33-42); 0.1 nM 125I-laminin, overnight 4° C.
*: point of attachment. Acm = CC(=O)NC*
Metric name: receptor affinity, 125I-laminin displacement (IC50), in words

Acetyl-C-[S-Acm]-VIGYSGDR-C-[S-Acm]NH2 (Ac-C(Acm)VIGYSGDRC(Acm)-NH2) [mEGF(33-42), capped synthetic peptide of residues 33 to 42 of murine epidermal growth factor, 67LR antagonist] : equipotent
CDPGYIGSR [Lam.β-1(925-933), CDPGYIGSR-NH2, synthetic peptide of amino acids 925–933 of the laminin β-1 chain, 67LR agonist, reference compound] : equipotent

Origin of values: patent US6995136B1
